target: p110β/p85α (Homo sapiens (Human), UniProt P42338); test: PI 3-Kinase (human) HTRF assay, p110β/p85α; type: biochemical; settings: in vitro; read-out: PI3K β IC50
Sequence (P42338 whole entry): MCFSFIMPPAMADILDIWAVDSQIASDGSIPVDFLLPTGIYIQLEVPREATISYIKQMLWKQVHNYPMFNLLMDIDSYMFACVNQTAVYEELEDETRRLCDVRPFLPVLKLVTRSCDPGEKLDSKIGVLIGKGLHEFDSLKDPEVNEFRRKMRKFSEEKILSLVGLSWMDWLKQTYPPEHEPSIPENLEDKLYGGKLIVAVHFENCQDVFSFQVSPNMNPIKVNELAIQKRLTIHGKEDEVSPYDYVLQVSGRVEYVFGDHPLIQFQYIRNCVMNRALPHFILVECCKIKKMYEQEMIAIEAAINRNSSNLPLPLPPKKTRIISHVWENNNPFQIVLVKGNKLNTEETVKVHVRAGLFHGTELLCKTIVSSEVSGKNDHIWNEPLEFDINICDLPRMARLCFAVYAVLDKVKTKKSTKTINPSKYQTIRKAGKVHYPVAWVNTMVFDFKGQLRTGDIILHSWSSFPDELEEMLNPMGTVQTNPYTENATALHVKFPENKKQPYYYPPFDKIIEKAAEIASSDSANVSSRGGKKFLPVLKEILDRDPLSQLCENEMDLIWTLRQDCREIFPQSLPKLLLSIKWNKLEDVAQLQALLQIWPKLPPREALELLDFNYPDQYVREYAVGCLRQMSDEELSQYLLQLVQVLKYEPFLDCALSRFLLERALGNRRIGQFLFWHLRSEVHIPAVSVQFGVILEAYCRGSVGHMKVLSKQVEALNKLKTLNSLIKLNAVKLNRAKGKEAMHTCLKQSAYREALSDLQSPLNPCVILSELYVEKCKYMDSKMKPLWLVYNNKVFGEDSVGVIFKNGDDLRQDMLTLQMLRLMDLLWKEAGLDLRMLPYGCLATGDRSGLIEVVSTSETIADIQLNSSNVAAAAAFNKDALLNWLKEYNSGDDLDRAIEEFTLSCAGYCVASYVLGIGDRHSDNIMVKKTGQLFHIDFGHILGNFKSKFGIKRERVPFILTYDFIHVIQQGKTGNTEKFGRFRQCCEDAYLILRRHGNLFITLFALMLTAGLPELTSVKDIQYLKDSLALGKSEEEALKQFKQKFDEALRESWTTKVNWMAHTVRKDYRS
Sequence (P27986 whole entry partner): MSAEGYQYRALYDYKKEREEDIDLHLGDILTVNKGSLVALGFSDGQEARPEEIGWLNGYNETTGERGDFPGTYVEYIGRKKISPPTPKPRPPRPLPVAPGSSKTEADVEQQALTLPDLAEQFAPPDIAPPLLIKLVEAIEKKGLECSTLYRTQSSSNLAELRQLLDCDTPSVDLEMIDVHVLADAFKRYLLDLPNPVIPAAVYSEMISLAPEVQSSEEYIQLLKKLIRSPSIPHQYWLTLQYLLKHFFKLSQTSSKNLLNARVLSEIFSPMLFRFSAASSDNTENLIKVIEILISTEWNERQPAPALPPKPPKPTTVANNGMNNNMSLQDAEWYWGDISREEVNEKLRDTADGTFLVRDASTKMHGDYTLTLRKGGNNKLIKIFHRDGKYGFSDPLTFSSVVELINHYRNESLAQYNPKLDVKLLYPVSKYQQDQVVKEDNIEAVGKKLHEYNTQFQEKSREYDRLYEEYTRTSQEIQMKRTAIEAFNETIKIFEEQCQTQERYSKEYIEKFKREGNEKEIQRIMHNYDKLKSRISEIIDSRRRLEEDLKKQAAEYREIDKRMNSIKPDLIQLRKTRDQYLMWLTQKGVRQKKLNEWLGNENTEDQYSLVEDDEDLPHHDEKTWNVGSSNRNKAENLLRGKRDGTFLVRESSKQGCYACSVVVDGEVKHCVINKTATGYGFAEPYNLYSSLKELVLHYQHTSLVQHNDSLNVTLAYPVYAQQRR
experimentalReadout: IC50

>  <compound>
Nc1nc2cc(-c3ccc4ncc(N5CC(N6CCOCC6)C5)nc4c3)cc(Cl)c2o1 [compound 358]

>  <readoutValue>
< 1 µM

$$$$
>  <compound>
Nc1nc2cc(-c3ccn4ncc(C(=O)N5CCCC5)c4c3)ccc2o1 [compound 346]

>  <readoutValue>
< 10 µM

$$$$
>  <compound>
Nc1nc2cc(-c3ccc4ncc(N5CC(N6CCCC6)C5)nc4c3)ccc2o1 [compound 314]

>  <readoutValue>
< 10 µM

$$$$
>  <compound>
COCCN1CCN(c2cnc3ccc(-c4ccc5oc(N)nc5c4)cc3n2)CC1 [compound 387]

>  <readoutValue>
< 1 µM

$$$$
>  <compound>
CN1CCN(C(=O)c2cnn3ccc(-c4ccc5oc(N)nc5c4)cc23)CC1 [compound 380]

>  <readoutValue>
< 10 µM

$$$$
>  <compound>
CC(=O)N1CCC(Nc2ncnc3ccc(-c4ccc5oc(N)nc5c4)nc23)CC1 [compound 211]

>  <readoutValue>
< 0.1 µM

$$$$
>  <compound>
Nc1nc2cc(-c3ccc4ncc(N5CC(C(=O)NC6CC6)C5)nc4c3)ccc2o1 [compound 215]

>  <readoutValue>
< 1 µM

$$$$
>  <compound>
Cc1cc(-c2ccc3oc(N)nc3c2)cc2c(C(=O)N3CCOCC3)cnn12 [compound 357]

>  <readoutValue>
< 10 µM

$$$$

----------
target: p110γ (Homo sapiens (Human)); assay: PI 3-Kinase (human) HTRF assay, p110γ; assay type: biochemical; conditions: read-out: PI3K γ IC50
pIC50: −log10 of the molar value.
The molecules listed here are annotated with their pIC50.

>  <molecule>
CN(C)CC(=O)N1CCN(c2cnc3ccc(-c4ccc5oc(N)nc5c4)cc3n2)CC1 [compound 139]

>  <pIC50>
> 6.00

$$$$
>  <molecule>
CC1CN(c2cnc3ccc(-c4ccc5oc(N)nc5c4)cc3n2)CC(C)N1 (stereo not drawn) [compound 131]

>  <pIC50>
> 6.00

$$$$
>  <molecule>
Nc1nc2cc(-c3ccc4ncc(N5CCN(CCO)CC5)nc4c3)ccc2o1 [compound 100]

>  <pIC50>
> 6.00

$$$$
>  <molecule>
Nc1nc2cc(-c3ccc4ncnc(OC5CCOCC5)c4c3)ccc2o1 [compound 47]

>  <pIC50>
> 6.00

$$$$
>  <molecule>
Cc1nccn1-c1cnc2ccc(-c3ccc4oc(N)nc4c3)cc2n1 [compound 174]

>  <pIC50>
> 7.00

$$$$
>  <molecule>
Cn1c(=O)n(-c2ccc(C(C)(C)C#N)cc2)c2c3cc(-c4ccc5oc(N)nc5c4)ccc3ncc21 [compound 7]

>  <pIC50>
> 7.00

$$$$
>  <molecule>
Nc1nc2cc(-c3ccc4ncc(=O)[nH]c4c3)ccc2o1 [compound 72]

>  <pIC50>
> 7.00

$$$$
>  <molecule>
Nc1nc2ccc(-c3ccc4ncc(N5CCOCC5)nc4c3)cc2s1 [compound 114]

>  <pIC50>
> 6.00

$$$$
>  <molecule>
C[C@@H]1CN(c2cnc3ccc(-c4ccc5oc(N)nc5c4)cc3n2)CCN1 [compound 179]

>  <pIC50>
> 5.00

$$$$

----------
target: p110β/p85α (Homo sapiens (Human), UniProt P42338); assay: PI 3-Kinase (human) HTRF assay, p110β/p85α; assay type: biochemical; settings: read-out: PI3K β In Vitro IC50
The compounds listed here are annotated with their IC50.

>  <compound>
Nc1nc2cc(-c3ccc4ncc(C(=O)N5CC[C@H](n6cccn6)C5)n4c3)ccc2o1

>  <IC50>
< 10000 nM

$$$$
>  <compound>
Nc1nc2cc(-c3cc(F)c4oc(N)nc4c3)ccc2o1

>  <IC50>
< 1000 nM

$$$$
>  <compound>
CC(C)N1CCC(n2cnc3ccc(-c4cncc(NS(=O)(=O)c5ccc(F)cc5F)c4)cc3c2=O)CC1

>  <IC50>
< 10000 nM

$$$$
>  <compound>
COc1ncc(-c2ccc3ncn(C4CCN(C)CC4)c(=O)c3c2)cc1NS(C)(=O)=O

>  <IC50>
< 1000 nM

$$$$
>  <compound>
Nc1nc2cc(-c3ccc4ncc(C(=O)N5CC[C@@H](N6CCOCC6)C5)n4c3)ccc2o1

>  <IC50>
< 10000 nM

$$$$
>  <compound>
CC(C)N1CCC(n2cnc3ccc(-c4cnc(Cl)c(NS(C)(=O)=O)c4)cc3c2=O)CC1

>  <IC50>
< 1000 nM

$$$$
>  <compound>
Nc1nc2cc(-c3ccc4ncc(N5CCNC(C(F)F)C5)nc4c3)ccc2o1 (centres unmarked)

>  <IC50>
< 1000 nM

$$$$
>  <compound>
CN1CCC(n2cnc3ccc(-c4cnc(Cl)c(NS(=O)(=O)c5ccccc5)c4)cc3c2=O)CC1

>  <IC50>
< 100 nM

$$$$

----------
molecular target: p110γ (Homo sapiens (Human), UniProt P48736); test: PI 3-Kinase (human) HTRF assay, p110γ; type: biochemical; details: in vitro; read-out: PI3K γ IC50
Sequence (P48736 whole entry): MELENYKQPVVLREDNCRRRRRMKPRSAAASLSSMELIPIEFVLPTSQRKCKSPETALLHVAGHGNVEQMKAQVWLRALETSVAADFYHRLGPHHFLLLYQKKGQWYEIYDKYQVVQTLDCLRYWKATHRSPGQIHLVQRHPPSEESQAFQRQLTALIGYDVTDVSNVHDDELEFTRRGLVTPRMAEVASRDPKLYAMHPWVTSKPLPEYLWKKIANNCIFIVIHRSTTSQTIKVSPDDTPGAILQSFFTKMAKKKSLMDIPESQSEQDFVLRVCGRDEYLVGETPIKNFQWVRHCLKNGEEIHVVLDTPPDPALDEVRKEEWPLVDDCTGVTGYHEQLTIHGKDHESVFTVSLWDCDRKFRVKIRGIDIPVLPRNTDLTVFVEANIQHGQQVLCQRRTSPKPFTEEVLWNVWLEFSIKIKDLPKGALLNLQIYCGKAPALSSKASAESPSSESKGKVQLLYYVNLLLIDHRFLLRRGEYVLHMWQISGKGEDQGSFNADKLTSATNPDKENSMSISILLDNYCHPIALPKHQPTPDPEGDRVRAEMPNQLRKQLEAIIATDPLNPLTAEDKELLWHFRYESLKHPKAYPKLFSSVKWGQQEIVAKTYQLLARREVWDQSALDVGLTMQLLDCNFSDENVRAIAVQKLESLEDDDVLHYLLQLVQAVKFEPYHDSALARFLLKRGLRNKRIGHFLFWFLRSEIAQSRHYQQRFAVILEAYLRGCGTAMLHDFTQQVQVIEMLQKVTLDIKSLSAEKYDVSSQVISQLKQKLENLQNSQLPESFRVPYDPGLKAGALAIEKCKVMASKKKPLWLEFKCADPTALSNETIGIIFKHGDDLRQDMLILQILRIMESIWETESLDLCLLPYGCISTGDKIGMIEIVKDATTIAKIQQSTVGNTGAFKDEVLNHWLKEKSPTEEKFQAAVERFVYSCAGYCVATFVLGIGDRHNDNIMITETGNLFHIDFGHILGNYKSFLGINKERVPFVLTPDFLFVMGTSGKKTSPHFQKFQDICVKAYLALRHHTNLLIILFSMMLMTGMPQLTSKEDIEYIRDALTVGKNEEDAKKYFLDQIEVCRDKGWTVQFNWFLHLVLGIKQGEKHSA

>  <molecule>
CC(=O)Nc1nc(C)c(-c2ccc3oc(N)nc3c2)s1 [compound 312]

>  <IC50>
< 0.1 µM

$$$$
>  <molecule>
CC(=O)Nc1nc2ccc(-c3ccc4oc(N)nc4c3)cc2s1 [compound 231]

>  <IC50>
< 0.1 µM

$$$$
>  <molecule>
CN1CCN(C2CCN(c3cnc4ccc(-c5ccc6oc(N)nc6c5)cc4n3)CC2)CC1 [compound 227]

>  <IC50>
< 10 µM

$$$$
>  <molecule>
Nc1nc2cc(-c3nc(N4CCOCC4)c4cnn(C5CCNCC5)c4n3)ccc2o1 [compound 348]

>  <IC50>
< 1 µM

$$$$
>  <molecule>
CN(C)[C@@H]1CCN(c2cnc3ccc(-c4ccc5oc(N)nc5c4)cc3n2)C1 [compound 378]

>  <IC50>
< 10 µM

$$$$
>  <molecule>
Nc1nc2cc(-c3ccc4ncc(N5CCN(C(=O)CN6CCCC6)CC5)nc4c3)ccc2o1 [compound 278]

>  <IC50>
< 1 µM

$$$$
>  <molecule>
Nc1nc2cc(-c3ccc4ncc(N5CC(N6CCC(O)CC6)C5)nc4c3)ccc2o1 [compound 341]

>  <IC50>
< 10 µM

$$$$
>  <molecule>
CN1CCN([C@H]2CCN(c3cnc4ccc(-c5ccc6oc(N)nc6c5)cc4n3)C2)CC1 [compound 381]

>  <IC50>
< 10 µM

$$$$
>  <molecule>
CC(C)n1cnc2ccc(-c3ccc4oc(N)nc4c3)cc2c1=O [compound 206]

>  <IC50>
< 10 µM

$$$$
>  <molecule>
CC1CN(C(=O)c2cnc3ccc(-c4ccc5oc(N)nc5c4)cn23)CCO1 (stereo not drawn) [compound 201]

>  <IC50>
< 10 µM

$$$$
>  <molecule>
Nc1nc2cc(-c3ccc4ncc(NCCN5CCCC5)nc4c3)ccc2o1 [compound 219]

>  <IC50>
< 1 µM

$$$$
>  <molecule>
NC(=O)[C@@H]1CCCN1C(=O)c1cnc2ccc(-c3ccc4oc(N)nc4c3)cn12 [compound 259]

>  <IC50>
< 10 µM

$$$$
>  <molecule>
Nc1nc2cc(-c3ccc4ncc(C(=O)N5CCC(O)C5)n4c3)ccc2o1 (stereo not drawn) [compound 202]

>  <IC50>
< 1 µM

$$$$
>  <molecule>
CN1CCC(Nc2ncnc3ccc(-c4ccc5oc(N)nc5c4)nc23)CC1 [compound 212]

>  <IC50>
< 1 µM

$$$$
>  <molecule>
CC(=O)N1CCN(C2CN(c3cnc4ccc(-c5ccc6oc(N)nc6c5)cc4n3)C2)CC1 [compound 327]

>  <IC50>
< 1 µM

$$$$
>  <molecule>
CCN(CC)CCNc1cnc2ccc(-c3ccc4oc(N)nc4c3)cc2n1 [compound 218]

>  <IC50>
< 10 µM

$$$$
>  <molecule>
Nc1nc2cc(-c3ccc4nc(N)oc4c3)ccc2o1 [compound 241]

>  <IC50>
< 0.1 µM

$$$$
>  <molecule>
Cc1cn(C2CCN(c3cnc4ccc(-c5ccc6oc(N)nc6c5)cc4n3)CC2)cn1 [compound 338]

>  <IC50>
< 10 µM

$$$$

----------
molecular target: p110γ (Homo sapiens (Human)); assay: PI 3-Kinase (human) HTRF assay, p110γ; assay type: biochemical; details: in vitro; read-out: PI3K γ IC50
experimentalReadout: IC50

>  <smi>
Nc1nc2cc(-c3ccc4ncc(N5CC(N6CCCC6)C5)nc4c3)ccc2o1

>  <readoutValue>
< 10 µM

$$$$
>  <smi>
NC(=O)[C@@H]1CCCN1C(=O)C1CN(c2cnc3ccc(-c4ccc5oc(N)nc5c4)cc3n2)C1

>  <readoutValue>
< 1 µM

$$$$
>  <smi>
C[C@@H]1CN(C(=O)C2CN(c3cnc4ccc(-c5ccc6oc(N)nc6c5)cc4n3)C2)CCN1

>  <readoutValue>
< 1 µM

$$$$
>  <smi>
Nc1nc2cc(-c3ccc4ncc(C(=O)N5CC(N6CCOCC6)C5)n4c3)ccc2o1

>  <readoutValue>
< 1 µM

$$$$
